Target: OXA-48 (Klebsiella pneumoniae, UniProt Q6XEC0)
Sequence (Q6XEC0 23-265 limits assumed): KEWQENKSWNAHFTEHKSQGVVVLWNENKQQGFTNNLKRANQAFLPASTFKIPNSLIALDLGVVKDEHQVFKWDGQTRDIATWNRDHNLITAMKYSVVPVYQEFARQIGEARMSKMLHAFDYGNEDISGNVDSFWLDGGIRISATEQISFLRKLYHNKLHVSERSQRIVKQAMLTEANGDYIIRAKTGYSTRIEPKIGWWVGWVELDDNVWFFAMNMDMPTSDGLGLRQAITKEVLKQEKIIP
Below, each entry is listed with its recorded Kd.
Express it in nM; write the number only.

Here is how some compounds turned out for Kd.
{"columns": ["compound", "assayResult"],
 "data": [
  ["NCCONC(=O)[C@@H]1CC[C@@H]2CN1C(=O)N2OS(=O)(=O)O [Nacubactam, nacubactam]", 41000],
  ["CC1=C[C@@H]2CN(C(=O)N2OS(=O)(=O)O)[C@@H]1C(N)=O [Durlobactam, durlobactam]", 0.07]
]}

Continue with the next compound.
Lookup: Could you share which Kd value was measured for O=C(O)c1c(F)ccc2c1OB(O)[C@@H]1C[C@H]21 [Xeruborbactam, xeruborbactam] ?
Found: 0.63

###

Test system: E. coli TG1 (OXA-48)
Experiment: microbe, parasite or virus in culture
Type: cell-based, Escherichia coli
Conditions: Escherichia coli
MIC strictly less than 0.2 mg/L = true (1). Otherwise false (0).

Observe how each entry below is paired with its result.
{"columns": ["compound", "targetOrSystem", "qualitativeLabel"],
 "data": [
  ["CC(C)(O/N=C(\\C(=O)N[C@@H]1C(=O)N2C(C(=O)[O-])=C(C[n+]3ccccc3)CS[C@H]12)c1csc(N)n1)C(=O)O", "E. coli TG1 (OXA-48)", "false (0)"],
  ["NCCONC(=O)[C@@H]1CC[C@@H]2CN1C(=O)N2OS(=O)(=O)O", "E. coli TG1 (OXA-48)", "false (0)"],
  ["O=C(O)c1c(F)ccc2c1OB(O)[C@@H]1C[C@H]21", "E. coli TG1 (OXA-48)", "false (0)"],
  ["NC(=O)[C@@H]1CC[C@@H]2CN1C(=O)N2OS(=O)(=O)O", "E. coli TG1 (OXA-48)", "false (0)"],
  ["NCCN[C@H]1CC[C@H](CC(=O)N[C@H]2Cc3cccc(C(=O)O)c3OB2O)CC1", "E. coli TG1 (OXA-48)", "false (0)"]
]}

Lookup: Problem: For the compound `O=C(O)C[C@@H]1CC[C@H](NC(=O)Cc2cccs2)B(O)O1` , is MIC under 0.2 mg/L?
Found: false (0)

Lookup: Problem: For the compound `C[C@@H](O)[C@H]1C(=O)N2C(C(=O)O)=C(SCCN=CN)C[C@H]12` , is MIC under 0.2 mg/L?
Found: true (1)

Lookup: Problem: For the compound `C[C@@H](O)[C@H]1C(=O)N2C(C(=O)O)=C(S[C@@H]3CN[C@H](C(=O)Nc4cccc(C(=O)O)c4)C3)[C@H](C)[C@H]12` , is MIC under 0.2 mg/L?
Found: false (0)

Lookup: Problem: For the compound `O=C(NNC(=O)[C@@H]1CC[C@@H]2CN1C(=O)N2OS(=O)(=O)O)[C@@H]1CCCNC1` , is MIC under 0.2 mg/L?
Found: true (1)

Lookup: Problem: For the compound CO/N=C(\C(=O)N[C@@H]1C(=O)N2C(C(=O)[O-])=C(C[N+]3(C)CCCC3)CS[C@H]12)c1csc(N)n1 [FEP, cefepime] , is MIC under 0.2 mg/L?
Found: true (1)

Lookup: Problem: For the compound `CC1=C[C@@H]2CN(C(=O)N2OS(=O)(=O)O)[C@@H]1C(N)=O` , is MIC under 0.2 mg/L?
Found: true (1)

Lookup: Problem: For the compound `O=C(NC1CCNCC1)[C@@H]1CC[C@@H]2CN1C(=O)N2OS(=O)(=O)O` , is MIC under 0.2 mg/L?
Found: false (0)

Lookup: Problem: For the compound `CC1(C)[C@H](C(=O)O)N2C(=O)C[C@H]2S1(=O)=O` , is MIC under 0.2 mg/L?
Found: false (0)

Lookup: Problem: For the compound `C[C@@H](O)[C@H]1C(=O)N2C(C(=O)O)=C(S[C@@H]3CN[C@H](C(=O)N(C)C)C3)[C@H](C)[C@H]12` , is MIC under 0.2 mg/L?
Found: true (1)
